measured-target: T1, 4H2162-AA
T1 chain: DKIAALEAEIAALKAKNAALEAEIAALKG
assay-overview: two-hybrid library CCmax;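 further: natural log of median RNA to DNA barcode read ratio; higher means stronger binding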
conditions-used: mean of both orientations
readout-name: interaction score

Study these solved cases before continuing.
binder: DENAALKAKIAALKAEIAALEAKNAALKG [4H1864-AA]
interaction score: -1.67
//
binder: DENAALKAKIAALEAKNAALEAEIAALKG [4H1842-AA]
interaction score: -1.21
//
binder: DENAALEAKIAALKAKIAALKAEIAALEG [4H1385-AA]
interaction score: -1.63
//
binder: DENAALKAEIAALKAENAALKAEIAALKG [4H1626-AA]
interaction score: -1.39
//
binder: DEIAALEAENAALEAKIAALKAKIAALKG [4H174-AA]
interaction score: -0.944

// for each binder in input: emit interaction score
1. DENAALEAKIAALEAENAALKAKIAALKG [4H1310-AA]
2. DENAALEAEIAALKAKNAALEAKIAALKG [4H1142-AA]
3. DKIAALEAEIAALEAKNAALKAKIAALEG [4H2109-AA]
4. DENAALKAKIAALKAENAALEAKIAALEG [4H1877-AA]
5. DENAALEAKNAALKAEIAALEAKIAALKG [4H1478-AA]
6. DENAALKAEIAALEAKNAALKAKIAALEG [4H1597-AA]
7. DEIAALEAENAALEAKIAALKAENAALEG [4H171-AA]

Given back:
-0.945
0.00334
0.55
-1.25
-1.13
-1.31
-1.5

Per the records, this binder ( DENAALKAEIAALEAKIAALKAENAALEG [4H1579-AA] ) has interaction score equal to -1.63
